Below: a set of entries, each annotated with reported MIC.
System: Escherichia coli
Experiment: Antimicrobial activity against Escherichia coli assessed as growth inhibition incubated for 2 hr measured after 24 hr by turbidity based assay
Assay type: functional
metric-name: MIC (µg/mL)

[
  {
    "molecule": "O=C(NCCN(CCNC(=O)c1[nH]ccc(=O)c1O)CCNC(=O)c1[nH]ccc(=O)c1O)c1[nH]ccc(=O)c1O",
    "value-reported": 80
  },
  {
    "molecule": "CCn1ccc(=O)c(O)c1C(=O)NCCN(CCNC(=O)c1c(O)c(=O)ccn1CC)CCNC(=O)c1c(O)c(=O)ccn1CC",
    "value-reported": 24
  },
  {
    "molecule": "CCCCn1ccc(=O)c(O)c1C(=O)NCCN(CCNC(=O)c1c(O)c(=O)ccn1CCCC)CCNC(=O)c1c(O)c(=O)ccn1CCCC",
    "value-reported": 40
  },
  {
    "molecule": "O=C(NCCN(CCNC(=O)c1c(O)c(=O)ccn1CCOCCO)CCNC(=O)c1c(O)c(=O)ccn1CCOCCO)c1c(O)c(=O)ccn1CCOCCO",
    "value-reported": 40
  },
  {
    "molecule": "CCCCCCn1ccc(=O)c(O)c1C(=O)NCCN(CCNC(=O)c1c(O)c(=O)ccn1CCCCCC)CCNC(=O)c1c(O)c(=O)ccn1CCCCCC",
    "value-reported": 80
  },
  {
    "molecule": "COCCn1ccc(=O)c(O)c1C(=O)NCCN(CCNC(=O)c1c(O)c(=O)ccn1CCOC)CCNC(=O)c1c(O)c(=O)ccn1CCOC",
    "value-reported": 16
  },
  {
    "molecule": "O=C(O)CN(CCN(CC(=O)O)CC(=O)O)CCN(CC(=O)O)CC(=O)O [PENTETIC ACID]",
    "value-reported": 80
  },
  {
    "molecule": "O=C(NCCN(CCNC(=O)c1c(O)c(=O)ccn1CCO)CCNC(=O)c1c(O)c(=O)ccn1CCO)c1c(O)c(=O)ccn1CCO",
    "value-reported": 40
  },
  {
    "molecule": "Cn1ccc(=O)c(O)c1C(=O)NCCN(CCNC(=O)c1c(O)c(=O)ccn1C)CCNC(=O)c1c(O)c(=O)ccn1C",
    "value-reported": 24
  }
]
